settings: in ethyl acetate, 298.15 K
experimental-endpoint: solubility (mole fraction)
Numbers only.

Entry `CC(=O)c1c(C)c([N+](=O)[O-])c(C(C)(C)C)c([N+](=O)[O-])c1C` ; solubility (mole fraction) = 0.111

---

settings: in ethanol, 308.15 K
experimental-endpoint: solubility (mole fraction)

Entry `CC(=O)c1c(C)c([N+](=O)[O-])c(C(C)(C)C)c([N+](=O)[O-])c1C` ; solubility (mole fraction) = 0.00619

---

details: in n-butanol, 293.15 K
experimental-endpoint: solubility (mole fraction)
Give bare numbers.

Entry `CC(=O)c1c(C)c([N+](=O)[O-])c(C(C)(C)C)c([N+](=O)[O-])c1C` ; solubility (mole fraction) = 0.00533
